Where do the numbers come from? From the supplement of paper PMC10065799.

- System: c-Src
- PROTOCOL SUMMARY: phosphorylation enrichment, bacterial display (enrichment ratio); higher = better substrate or ligand; peptides without Tyr show the background;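 also: 11-residue human phosphosite peptides and single-mutation variants displayed on the E. coli surface, counted by deep sequencing, each peptide's frequency after selection divided by its frequency in the unselected input library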;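 also: frequency after pTyr selection over input frequency; kinase dosed for 20-30% of maximal phosphorylation in three min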
Hi all, reminder that labels come from phosphorylation enrichment, split as one = under 0.5, two = from 0.5 up to 0.9, three = 0.9 and over

Which phosphorylation enrichment category applies to TIQRMYGCDVG [HLA-A_Y123_I121R] here?
two

Band for MDNQEYKDAFT [BRDT_Y331_K336T_YF] ?
one

Bin this entry: RGEAVYSRDCV [XPC_Y676]
three

Textbook exercise: identify the category of the sequence given here, LLQAEYWHDPI [PPT1_Y185_V181L] , according to its measured value.
two

Sort FMKEPYIQSRF [HIPK4_Y175_V171M_YF] into one of the categories.
one

Textbook exercise: identify the category of the sequence given here, SSENPYATIKD [MEGF10_Y1030] , according to its measured value.
three

Which of the defined bands does the recorded phosphorylation enrichment of FKEVVYQAMEE [TACC3_Y684_E680K] sit within?
three

Assign a bin to AVLQPYIFVAT [CFTR_Y1014]
two

# bin label for LSPNMYNSKFW [TARSL2_Y457_L461F]
three

Band for the recorded phosphorylation enrichment of MLEAPYVDRNS [F10_Y384_V382A] ?
one

Assign a category based on measured phosphorylation enrichment for IGDENYGEGSS [ACO2_Y665] and give only the class name.
two

In plain terms, what class is NMSRIYSTAKV [ACE_Y151] ?
one

Looking at KVPAIYGVGTR [CPS1_Y162_D165G] , which class would you pick?
three

# bin lookup: classify PIYLYYLMDLS [ITGB2_Y131_D128Y] by its phosphorylation enrichment
three

Could you place LPIQTYSALNF [DES_Y423] in its proper category? Many thanks.
three

Would you mind sorting DKATEYSQYMR [MAX_Y70_I71S] into the appropriate category?
two

Lab note: which band did NTCNRYCCDEI [ITGB3_Y660_R662C] land in?
two

Class? Entry: VFSTDYFRVGG [NTRK2_Y706_YF]
two

Exercise: read the entry NVVNEYSSELE [FGB_Y172] and state which class it falls under.
one

Category of YQQLFYLLQIN [IQGAP2_Y890_T894I] :
three

Entry IGEGTSGVVFK [CDK2_Y15_Y15S_YF] belongs to which category?
one

Lab note: sort EWLRRYLENGK [HLA-A_Y195] into the matching phosphorylation enrichment band.
one

GET /class?item= KTTILYKLKLG [ARF1_Y35]
one

Where would VLTSKYPGGGG [HBA1_Y141_R142P] land among the classes by reported phosphorylation enrichment?
one

Textbook exercise: identify the category of the sequence given here, IEPGIYIPEDD [XPNPEP3_Y455] , according to its measured value.
two

Which of the defined bands does the recorded phosphorylation enrichment of GQLIVYAPPEW [CNTN6_Y315_F314V] sit within?
three

# bin label for WEPFGFAVTRC [PTPRT_Y412_Y412F]
one

Please let me know in which category the item FSVDGYDSSVR [KCNQ1_Y461] belongs.
one

###

- Test system: c-Abl (mouse)
- PROTOCOL SUMMARY: phosphorylation enrichment, bacterial display (enrichment ratio); higher = better substrate or ligand; peptides without Tyr show the background
Kindly state phosphorylation enrichment for each of the entries shown.
Answer with a bare number; do not write a unit.

Dear colleague, please send me the reported phosphorylation enrichment for CTTIQYNFMCN [TP53_Y234_H233Q_YF] when you can.
0.593

Identify measured phosphorylation enrichment corresponding to ESMNTYLQTSP [NAT1_Y208]
0.693

State its phosphorylation enrichment for this sequence: CGTPTCLAPEV [CHEK2_Y390_Y390C]
0.759

Determine its reported phosphorylation enrichment: YETSHYLASPD [CTNND2_Y1217_P1218L]
0.821
